molecular target: LNX1_1, Q8TBB1; assay: holdup assay; design: key: below the threshold = too weak to quantify, mostly under pKd 3.1 to 4; conditions: plain residues with an end cap or a label only (N-terminal biotin on a linker: ado-ado)
Sequence (Q8TBB1 261-371): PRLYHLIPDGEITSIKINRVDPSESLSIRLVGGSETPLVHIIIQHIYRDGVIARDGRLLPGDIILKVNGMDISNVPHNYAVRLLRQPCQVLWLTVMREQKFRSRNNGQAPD

Binder	pKd
TKGPRGPTRV [SAPCD1, Q5SSQ6]	below the threshold
IKAIVDLTGL [TRAF2, Q12933]	below the threshold
TSSMRGMDAV [RSRC2, Q7L4I2]	below the threshold
GNSVLKSTQF [SLC22A12, Q96S37]	below the threshold
TACCHSETVV [TGFA, P01135]	4.12
DDPSTAETVL [ABCA7, Q8IZY2]	below the threshold
QGLAERISVL [PRKD2, Q9BZL6]	3.86
SKSNFGSEPL [KIF17, Q9P2E2]	below the threshold
